Molecular target: T1, E3 peptide
T1 chain: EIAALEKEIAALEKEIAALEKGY
Assay: fluorescence titration of 10 nM beacon with E3 peptide, curve fitting
VALUE_TYPE: Kd (nM)
Return type: number; implicit unit nM.

If you can, please state the reported Kd value of KICALKAKIAALKAKICALKAGY (modifications not checked) [K3-b1b3 beacon] . 738
